The origin of these recorded values is ChEMBL document CHEMBL3045902.

tested_system: Nicotinic acetylcholine receptor alpha8 subunit (Periplaneta americana) (UniProt H6TY12)
Sequence (H6TY12 as listed by the source): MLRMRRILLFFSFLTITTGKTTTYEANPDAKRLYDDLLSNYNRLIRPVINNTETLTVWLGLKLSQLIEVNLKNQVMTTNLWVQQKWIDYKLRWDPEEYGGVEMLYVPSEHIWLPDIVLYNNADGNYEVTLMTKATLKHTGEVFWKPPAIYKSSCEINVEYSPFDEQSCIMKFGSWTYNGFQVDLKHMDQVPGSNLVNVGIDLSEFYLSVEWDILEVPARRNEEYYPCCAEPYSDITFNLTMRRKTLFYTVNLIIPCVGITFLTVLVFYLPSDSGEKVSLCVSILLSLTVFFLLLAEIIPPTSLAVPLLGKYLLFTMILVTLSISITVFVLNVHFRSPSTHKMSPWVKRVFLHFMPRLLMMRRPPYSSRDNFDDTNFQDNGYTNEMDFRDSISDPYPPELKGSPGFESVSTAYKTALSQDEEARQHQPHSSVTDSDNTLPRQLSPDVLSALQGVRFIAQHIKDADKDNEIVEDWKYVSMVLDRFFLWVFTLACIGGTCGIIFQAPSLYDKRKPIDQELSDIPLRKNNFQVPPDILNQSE
assay_protocol: Agonist activity at Periplaneta americana (American cockroach) nAChR in terminal abdominal ganglion assessed as assessed as inward current by tight-seal whole cell patch clamp method relative to 100 uM ACh
Type: tissue-based
experimental_readout: Imax
Answers are plain numbers.

A selection of reference data follows.
> print(dat)
                                   compound                             tested.system  experimental.readout  endpoint.result
1       O=[N+]([O-])/C=C1\NCCN1Cc1cnc(Cl)s1  Nicotinic acetylcholine receptor alpha8 subunit (Periplaneta americana) (UniProt H6TY12)                  Imax              0.3
2  O=[N+]([O-])/N=C1\NCCN1Cc1cnc(Cl)s1 [IMIDACLOTHIZ]  Nicotinic acetylcholine receptor alpha8 subunit (Periplaneta americana) (UniProt H6TY12)                  Imax              0.3
3  CN/C(=N\[N+](=O)[O-])NCc1cnc(Cl)s1 [CLOTHIANIDINE]  Nicotinic acetylcholine receptor alpha8 subunit (Periplaneta americana) (UniProt H6TY12)                  Imax             0.68
4       C/N=C(\NCc1ccc(Cl)nc1)N[N+](=O)[O-]  Nicotinic acetylcholine receptor alpha8 subunit (Periplaneta americana) (UniProt H6TY12)                  Imax             0.31
5       CN/C(=C\[N+](=O)[O-])NCc1ccc(Cl)nc1  Nicotinic acetylcholine receptor alpha8 subunit (Periplaneta americana) (UniProt H6TY12)                  Imax             0.44

Would you be so kind as to report Imax for each listed record?
1. CN/C(=C\[N+](=O)[O-])NCc1cnc(Cl)s1
2. O=[N+]([O-])/C=C1\NCCN1Cc1ccc(Cl)nc1
3. O=[N+]([O-])/N=C1\NCCN1Cc1ccc(Cl)nc1 [IMIDACLOPRID]

0.47
0.24
0.11

* * *

assay_protocol: Hydrophobicity, log K of the compound by HPLC
Format: physicochemical
Give measured log K for each item. Keep answers brief.
One number for each entry.

A selection of reference data follows.
> print(dat)
                                smiles  experimental.readout  endpoint.result
1  C/N=C(\NCc1ccc(Cl)nc1)N[N+](=O)[O-]                 log K             0.11
2   CN/C(=C\[N+](=O)[O-])NCc1cnc(Cl)s1                 log K             0.14
3  O=[N+]([O-])/N=C1\NCCN1Cc1cnc(Cl)s1                 log K             0.28

Would you be so kind as to report log K for each listed record?
1. CN/C(=C\[N+](=O)[O-])NCc1ccc(Cl)nc1
2. O=[N+]([O-])NC1=NCCN1Cc1ccc(Cl)nc1

0.16
0.23

Would you be so kind as to report log K for each listed record?
1. O=[N+]([O-])/C=C1\NCCN1Cc1cnc(Cl)s1
2. O=[N+]([O-])/C=C1\NCCN1Cc1ccc(Cl)nc1
3. CN/C(=N\[N+](=O)[O-])NCc1cnc(Cl)s1

1: 0.03; 2: 0.05; 3: 0.17

* * *

tested_system: Nicotinic acetylcholine receptor alpha8 subunit (Periplaneta americana)
assay_protocol: Agonist activity at Periplaneta americana (American cockroach) nAChR in terminal abdominal ganglion assessed as assessed as inward current by tight-seal whole cell patch clamp method
Give measured EC50 for each item. Keep answers brief.
One number for each entry, in nM.

A selection of reference data follows.
> print(dat)
                                smiles  experimental.readout  endpoint.result
1  CN/C(=C\[N+](=O)[O-])NCc1ccc(Cl)nc1                  EC50             38.9
2                 CC(=O)OCC[N+](C)(C)C                  EC50            11500
3  C/N=C(\NCc1ccc(Cl)nc1)N[N+](=O)[O-]                  EC50             1860

Would you be so kind as to report EC50 for each listed record?
1. O=[N+]([O-])NC1=NCCN1Cc1ccc(Cl)nc1
2. O=[N+]([O-])/C=C1\NCCN1Cc1ccc(Cl)nc1
3. O=[N+]([O-])/N=C1\NCCN1Cc1cnc(Cl)s1
4. O=[N+]([O-])/C=C1\NCCN1Cc1cnc(Cl)s1

1320
72.4
1580
15.8

Would you be so kind as to report EC50 for each listed record?
1. CN/C(=C\[N+](=O)[O-])NCc1cnc(Cl)s1
2. CN/C(=N\[N+](=O)[O-])NCc1cnc(Cl)s1

19.5
1580
